Target: TRPML3 (Homo sapiens, UniProt Q8TDD5)
Construct: expressed in transfected cells
Sequence (Q8TDD5 1-553): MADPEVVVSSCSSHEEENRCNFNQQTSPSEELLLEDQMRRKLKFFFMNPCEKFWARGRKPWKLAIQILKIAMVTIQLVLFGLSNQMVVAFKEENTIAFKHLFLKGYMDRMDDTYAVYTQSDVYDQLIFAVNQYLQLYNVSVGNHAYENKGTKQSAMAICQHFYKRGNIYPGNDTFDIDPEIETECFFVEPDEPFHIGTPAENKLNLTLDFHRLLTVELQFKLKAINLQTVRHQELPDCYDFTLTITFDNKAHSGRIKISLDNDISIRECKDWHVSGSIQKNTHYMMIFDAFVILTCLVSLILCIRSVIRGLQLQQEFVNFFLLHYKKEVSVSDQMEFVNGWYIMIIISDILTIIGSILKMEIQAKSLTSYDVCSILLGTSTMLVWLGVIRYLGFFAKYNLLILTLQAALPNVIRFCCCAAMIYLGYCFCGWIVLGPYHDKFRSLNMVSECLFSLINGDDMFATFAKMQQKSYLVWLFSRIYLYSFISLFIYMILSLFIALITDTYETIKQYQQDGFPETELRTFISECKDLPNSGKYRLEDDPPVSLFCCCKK
Assay: Fluorescent TRPML3 assay (as for TRPML1)
Format: cell-based
Details: Table 3, compounds 101-177

- Smiles string: "CC(C)(O)C(=O)N1CCN(c2ncnc3c2c(-c2ccccc2F)cn3-c2cc(C#N)ccn2)C2(CC2)C1"
  EC50: "< 100 nM"
- Smiles string: "CC(C)C(=O)N1CCN(c2ncnc3c2c(C2CCC2)cn3-c2cc(C#N)ccn2)[C@@H](C)C1"
  EC50: "500 to 2000 nM"
- Smiles string: "C[C@@H]1CN(c2ncnc3c2c(C2CC2)cn3-c2cc(C#N)ccn2)CCN1C(=O)C1(F)CC1"
  EC50: "100 to 500 nM"
- Smiles string: "Cc1nccnc1-c1cn(-c2cc(F)cc(F)c2)c2ncnc(N3C[C@@H](C)N(C(=O)CC(C)C)C[C@@H]3C)c12"
  EC50: "> 2000 nM"
- Smiles string: "CC(C)C(=O)N1CCN(c2ncnc3c2c(-c2ccccc2F)cn3-c2cc(C#N)ccn2)C(C)(C)C1"
  EC50: "< 100 nM"
- Smiles string: "CC(C)C(=O)N1C[C@H](C)N(c2ncnc3c2c(-c2ccccc2F)cn3-c2cc(Cl)ccn2)C[C@H]1C"
  EC50: "< 100 nM"
- Smiles string: "CCN(CC)c1cn(-c2cc(C#N)ccn2)c2ncnc(N3CCN(C(=O)C(C)C)C[C@@H]3C)c12"
  EC50: "100 to 500 nM"
- Smiles string: "CC(C)C(=O)N1CCN(c2ncnc3c2c(N2CCCC2)cn3-c2cc(C#N)ccn2)C[C@H]1C"
  EC50: "100 to 500 nM"
- Smiles string: "CC(C)C(=O)N1CCN(c2ncnc3c2c(-c2ccccc2F)cn3-c2cc(C#N)ccn2)[C@@H](C)C1"
  EC50: "< 100 nM"
- Smiles string: "C[C@H]1CN(C(=O)C2(C)CC2)CCN1c1ncnc2c1c(-c1ccccc1F)cn2-c1cc(C#N)ccn1"
  EC50: "< 100 nM"
- Smiles string: "C[C@H]1CN(C(=O)C2CC2)CCN1c1ncnc2c1c(-c1ccccc1F)cn2-c1cc(C#N)ccn1"
  EC50: "< 100 nM"
- Smiles string: "CCCN(CC)c1cn(-c2cc(C#N)ccn2)c2ncnc(N3CCN(C(=O)C(C)(C)C)C[C@@H]3C)c12"
  EC50: "< 100 nM"
- Smiles string: "C[C@@H]1CN(c2cn(-c3cc(C#N)ccn3)c3ncnc(N4CCN(C(=O)CC(C)(C)C)C[C@@H]4C)c23)CCO1"
  EC50: "< 100 nM"
- Smiles string: "CC(C)C(=O)N1CCN(c2ncnc3c2c(N2CCCC2)cn3-c2cc(C#N)ccn2)[C@@H](C)C1"
  EC50: "100 to 500 nM"
- Smiles string: "CC(C)CC(=O)N1C[C@H](C)N(c2ncnc3c2c(C2CC2)cn3-c2cc(C#N)ccn2)C[C@H]1C"
  EC50: "< 100 nM"
- Smiles string: "C[C@@H]1CN(c2ncnc3c2c(C2CC2)cn3-c2cc(C#N)ccn2)CCN1C(=O)C(C)(C)F"
  EC50: "< 100 nM"
